# Assayed System: T1, human CCR8 (human, UniProt P51685 1-355)
# T1 construct: whole, on cells; also called hCCR8
# T1 sequence (P51685 whole entry): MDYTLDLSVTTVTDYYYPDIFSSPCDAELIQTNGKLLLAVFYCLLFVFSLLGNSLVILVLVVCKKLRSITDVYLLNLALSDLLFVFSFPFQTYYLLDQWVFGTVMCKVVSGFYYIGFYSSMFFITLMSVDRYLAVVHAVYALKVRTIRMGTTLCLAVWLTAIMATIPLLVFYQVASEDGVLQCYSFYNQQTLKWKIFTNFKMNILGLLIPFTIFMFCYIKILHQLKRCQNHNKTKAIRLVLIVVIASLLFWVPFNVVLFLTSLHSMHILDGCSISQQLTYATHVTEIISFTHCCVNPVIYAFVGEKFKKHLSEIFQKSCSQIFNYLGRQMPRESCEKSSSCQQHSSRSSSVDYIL
# Protocol Description: FACS on CHO-K1-human CCR8 cells
Below is a list of entries, each paired with its recorded Max MFI value.
Give the number; MFI is assumed, so skip it.

Hu149-22 (antibody, human IgG1, V domains shown, human IgG1) VH: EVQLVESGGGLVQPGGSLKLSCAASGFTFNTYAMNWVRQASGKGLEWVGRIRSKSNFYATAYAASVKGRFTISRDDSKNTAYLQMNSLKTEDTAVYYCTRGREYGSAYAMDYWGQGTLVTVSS VL: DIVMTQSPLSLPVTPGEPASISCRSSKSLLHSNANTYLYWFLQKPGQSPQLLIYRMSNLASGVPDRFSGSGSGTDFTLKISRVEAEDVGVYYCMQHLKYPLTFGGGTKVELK :: 793000
Hu149-18 (antibody, human IgG1, V domains shown, human IgG1) VH: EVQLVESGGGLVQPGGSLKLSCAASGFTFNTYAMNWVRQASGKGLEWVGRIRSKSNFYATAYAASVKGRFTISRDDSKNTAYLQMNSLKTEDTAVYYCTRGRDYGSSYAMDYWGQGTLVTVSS VL: DIVMTQSPLSLPVTPGEPASISCRSSKSLLHSNANTYLYWFLQKPGQSPQLLIYRMSNLASGVPDRFSGSGSGTDFTLKISRVEAEDVGVYYCMQHLRYPLTFGGGTKVELK :: 694000
Hu149-21 (antibody, human IgG1, V domains shown, human IgG1) VH: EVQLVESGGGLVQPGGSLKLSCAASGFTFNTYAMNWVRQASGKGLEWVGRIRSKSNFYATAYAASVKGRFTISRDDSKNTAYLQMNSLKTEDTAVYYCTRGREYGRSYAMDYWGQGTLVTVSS VL: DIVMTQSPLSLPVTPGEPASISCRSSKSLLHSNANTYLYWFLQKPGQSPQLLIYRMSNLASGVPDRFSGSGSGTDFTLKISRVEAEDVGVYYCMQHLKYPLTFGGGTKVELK :: 794000

Consider the additional binder presented here.
Lab note: measured Max MFI of Hu149-23 (antibody, human IgG1, V domains shown, human IgG1) VH: EVQLVESGGGLVQPGGSLKLSCAASGFTFNTYAMNWVRQAPGKGLEWVGRIRSKSNFYATAYAASVKGRFTISRDDSKNTAYLQMNSLKTEDTAVYYCTRGREYGSSYAMDYWGQGTLVTVSS VL: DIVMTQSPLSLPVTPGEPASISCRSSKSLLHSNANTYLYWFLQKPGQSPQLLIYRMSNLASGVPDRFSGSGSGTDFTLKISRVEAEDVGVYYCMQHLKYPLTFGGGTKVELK was 816000
